System: Streptococcus pneumoniae
ASSAY_REMARKS: Antibacterial activity against Streptococcus pneumoniae ATCC 49619 in BHI broth containing 2% LHB by broth microdilution method in presence of 0.002% polysorbate 80
Assay type: functional
Collected MIC values appear next to each entry.
Please make sure the unit comes right after the number.

Consider the worked cases shown below.
COMPOUND	MIC
CN[C@H](CC(C)C)C(=O)N[C@H]1C(=O)N[C@@H](CC(N)=O)C(=O)N[C@H]2C(=O)N[C@H]3C(=O)N[C@H](C(=O)N[C@H](C(=O)O)c4cc(O)cc(O)c4-c4cc3ccc4O)[C@H](O)c3ccc(c(Cl)c3)Oc3cc2cc(c3O[C@@H]2O[C@H](CO)[C@@H](O)[C@H](O)[C@H]2O[C@H]2C[C@](C)(N)[C@H](O)[C@H](C)O2)Oc2ccc(cc2Cl)[C@H]1O [VANCOMYCIN]	0.25 µg/mL
O=C(O)c1cn(C2CC2)c2cc(N3CCNCC3)c(F)cc2c1=O [CIPROFLOXACIN]	1 µg/mL
CN[C@H](CC(C)C)C(=O)N[C@H]1C(=O)N[C@@H](CC(N)=O)C(=O)N[C@H]2C(=O)N[C@H]3C(=O)N[C@H](C(=O)N[C@H](C(=O)O)c4cc(O)cc(O)c4-c4cc3ccc4O)[C@H](O[C@H]3C[C@](C)(N)[C@@H](O)[C@H](C)O3)c3ccc(c(Cl)c3)Oc3cc2cc(c3O[C@@H]2O[C@H](CO)[C@@H](O)[C@H](O)[C@H]2O[C@H]2C[C@](C)(NCc3ccc(-c4ccc(Cl)cc4)cc3)[C@@H](O)[C@H](C)O2)Oc2ccc(cc2Cl)[C@H]1O [ORITAVANCIN]	0.001 µg/mL

Query compound follows.
Could you share which MIC value was measured for `CC(=O)N[C@@H]1[C@H](Oc2c3cc4cc2Oc2ccc(cc2Cl)[C@@H](O[C@@H]2O[C@@H](CO)[C@@H](O)[C@H](O)[C@@H]2NC(C)=O)[C@@H]2NC(=O)[C@H](NC(=O)[C@@H]4NC(=O)[C@H]4NC(=O)[C@@H](Cc5ccc(c(Cl)c5)O3)NC(=O)[C@H](N)c3ccc(O)c(c3)Oc3cc(O)cc4c3)c3ccc(O)c(c3)-c3c(O[C@H]4O[C@H](CO)[C@@H](O)[C@@H](O)[C@@H]4O)cc(O)cc3[C@@H](C(=O)O)NC2=O)O[C@@H](CO)[C@@H](O)[C@@H]1O` ?
0.03 µg/mL
